test system: Plasmodium berghei; assay: Screen against P. berghei liver stage (PbLuc), transformed with Luciferase, at 10uM; assay type: functional, HepG2; details: tested at 10 uM
About 8,600 (12%) of roughly 69,000 compounds showed an effect of 50% or more. Shown is part of a subset that was picked to be rich in strong results.
MEASUREMENT_KIND: INHIBITION (%)
Answers are plain numbers, in %.

>  <MOLECULE>
CN(C)C(=O)N1C[C@@H]2COC[C@]2(c2nnc(C3CC3)o2)C1

>  <INHIBITION [%]>
54.7

$$$$
>  <MOLECULE>
CCNC(=O)NC(=O)CN1CCCC1c1nc(C2CCCCC2)co1 (stereo not drawn)

>  <INHIBITION [%]>
10.8

$$$$

// batch mode: one INHIBITION value per listed entry
1. O=C(NC1CC1)c1cc2c(nc1O)CC(c1cccs1)CC2=O (stereo not drawn)
2. CC(C)(C)NC(=O)CN1CCNCC1

Result:
75.2
-30

// batch mode: one INHIBITION value per listed entry
1. Cn1ncc(C(=O)N2CCN(S(C)(=O)=O)CC2)c1Cl
2. CCOc1ccc(OC2CCCN(c3cnn(C)c3)C2=O)cc1 (stereo not drawn)
3. CCn1cnc(NC(=O)N2CCCC(c3ccccc3)CC2)n1 (stereo not drawn)
4. Cc1nc(COc2ccc(OC3CCCCNC3=O)cc2)oc1C (stereo not drawn)
5. CN1C[C@@H](O)[C@]2(CCN(C(=O)OCc3ccccc3)C2)S1(=O)=O
6. CC(C)(C)NC(=O)CN1CCCNCC1
7. CC(C)(C)C(=O)N1C[C@@H]2COC[C@]2(c2nnc(C3CC3)o2)C1
8. O=C(Cc1ccc(Cl)s1)Nc1ccc2c(c1)C(=O)NC2=O

Result:
-10.95
25.8
22.4
64.9
1.8
74.9
-9.54
-97.9

Problem: Name the reported INHIBITION value associated with the molecule O=C1CC(c2cccs2)Cc2nc(O)c(C(=O)N3CCCC3)cc21 (stereo not drawn)
Result: -60.7

###

Please provide measured INHIBITION for the entries that follow.
test system: Plasmodium berghei; assay: Screen against P. berghei liver stage (PbLuc), transformed with Luciferase, at 10uM; format: functional, HepG2; settings: tested at 10 uM
Out of some 69,000 compounds screened, about 8,600 (12%) showed an effect of 50% or more. The entries come from a sample that favours strong results as a whole.
Give bare numbers, in %.

// worked examples, INHIBITION included
>  <MOLECULE>
N[C@H]1CN(CCOc2ccc(F)cc2)C[C@@H]1C1CC1

>  <TARGET_OR_TEST_SYSTEM>
Plasmodium berghei

>  <REPORTED_RESULT>
27.6

$$$$
>  <MOLECULE>
COc1ccc(Cn2cc(C(C)O)nn2)cc1 (centres undefined)

>  <TARGET_OR_TEST_SYSTEM>
Plasmodium berghei

>  <REPORTED_RESULT>
19.9

$$$$
>  <MOLECULE>
N[C@H]1CN(S(=O)(=O)c2ccccc2)C[C@@H]1C1CC1

>  <TARGET_OR_TEST_SYSTEM>
Plasmodium berghei

>  <REPORTED_RESULT>
58.3

$$$$
>  <MOLECULE>
CC1CCCN(Cc2cccc(C(=O)Nc3nccs3)c2)C1 (centres undefined)

>  <TARGET_OR_TEST_SYSTEM>
Plasmodium berghei

>  <REPORTED_RESULT>
-37.8

$$$$
>  <MOLECULE>
Nc1cc(CCC2CN(Cc3ccc4cc[nH]c4c3)CCO2)ccn1 (centres undefined)

>  <TARGET_OR_TEST_SYSTEM>
Plasmodium berghei

>  <REPORTED_RESULT>
78.2

$$$$
>  <MOLECULE>
CS(=O)(=O)NC[C@H]1OC[C@H]2CN(CCc3ccccc3)CC[C@H]21

>  <TARGET_OR_TEST_SYSTEM>
Plasmodium berghei

>  <REPORTED_RESULT>
2.7

$$$$

// batch mode: one INHIBITION value per listed entry
1. Cc1cncc(C(=O)N2CCCC(O)(CN(C)C)CC2)c1 (centres undefined)
2. c1ccc(CCCC2CN(Cc3ncc[nH]3)CCO2)cc1 (centres undefined)
3. COc1ccc(CN2CCOC(CCc3ccnc(N)c3)C2)cc1 (centres undefined)

Result:
1. -5.78
2. 28.5
3. 87.1

###

system: Plasmodium berghei; assay: Screen against P. berghei liver stage (PbLuc), transformed with Luciferase, at 10uM; type: functional, HepG2; conditions: tested at 10 uM
Out of some 69,000 compounds screened, about 8,600 (12%) showed an effect of 50% or more. Shown is part of a subset that was picked to be rich in strong results.
API: label(entry) gives Criterion met if the entry's INHIBITION is strictly smaller than 20%; on equality or larger values it gives Criterion not met.

Example entries begin here.
>  <MOLECULE>
COc1cnc(N2CC(N3CCOCC3)C2)nc1-c1ccnn1C

>  <TARGET_OR_TEST_SYSTEM>
Plasmodium berghei

>  <ASSIGNED_CATEGORY>
Criterion not met

$$$$
>  <MOLECULE>
O=C(NCCS(=O)(=O)N1CCc2ccccc21)c1c(O)cc(F)cc1F

>  <TARGET_OR_TEST_SYSTEM>
Plasmodium berghei

>  <ASSIGNED_CATEGORY>
Criterion not met

$$$$
>  <MOLECULE>
O=S(=O)(c1cncc(F)c1)N1CCSC2(CCCCC2)C1

>  <TARGET_OR_TEST_SYSTEM>
Plasmodium berghei

>  <ASSIGNED_CATEGORY>
Criterion not met

$$$$

Problem: Is INHIBITION of COCCN1C(=O)CC(c2cccnc2)C12CCN(C(=O)C1CC1)CC2 (stereo not given) strictly below 20%?
Result: Criterion not met

Problem: Is INHIBITION of Cc1cc(C)c2ncn(CCC(C)O)c(=O)c2c1 (stereo not given) strictly below 20%?
Result: Criterion met

Problem: Is INHIBITION of CCCC(=O)Nc1ccc(CC(=O)N(C)CCc2cn[nH]c2)cc1 strictly below 20%?
Result: Criterion met

Problem: Is INHIBITION of Cc1c(NC(=O)c2cnc[nH]2)cccc1C(=O)NC(C)(C)C strictly below 20%?
Result: Criterion not met

Problem: Is INHIBITION of Cc1cnc(N2CCCC(c3ccccc3)C2)nc1-c1ncnn1C (stereo not given) strictly below 20%?
Result: Criterion not met

Problem: Is INHIBITION of O=C(NCCC(=O)N1CCCc2ccccc21)c1ccc(F)cc1F strictly below 20%?
Result: Criterion met

Problem: Is INHIBITION of Cc1c(NC(=O)c2ncn[nH]2)cccc1C(=O)NC(C)(C)C strictly below 20%?
Result: Criterion not met

Problem: Is INHIBITION of O=C(CC1CC1)N1CCC2(CCCN(c3ncccn3)C2)CC1 strictly below 20%?
Result: Criterion not met

Problem: Is INHIBITION of Cc1nn(C)c(Cl)c1CNCc1cccnc1N1CCN(C)CC1 strictly below 20%?
Result: Criterion met

Problem: Is INHIBITION of O=C(c1ccnnc1)N1CCC2(CC1)CN(c1ccccn1)CCO2 strictly below 20%?
Result: Criterion not met

Problem: Is INHIBITION of COCC(=O)NCc1cc(=O)n2c(n1)CN(Cc1cccs1)CCC2 strictly below 20%?
Result: Criterion not met

Problem: Is INHIBITION of CC(CN1CCOC1=O)NC(=O)c1ccccc1Oc1ccccc1 (stereo not given) strictly below 20%?
Result: Criterion met

Problem: Is INHIBITION of CN(CCCOc1ccccc1Cl)C(=O)CN1C(=O)CCNC1=O strictly below 20%?
Result: Criterion met

Problem: Is INHIBITION of Cc1cc(C)c2cc(CNCC3CCCO3)c3nn(C)c(=O)n3c2c1 (stereo not given) strictly below 20%?
Result: Criterion not met

Problem: Is INHIBITION of Cn1nc(C(=O)NC2(c3ccc(Cl)cc3)CCCC2)ccc1=O strictly below 20%?
Result: Criterion met

Problem: Is INHIBITION of O=C(c1cccc(F)c1)N1CCC2(CC1)CN(c1ccccn1)CCO2 strictly below 20%?
Result: Criterion not met

###

tested on: Plasmodium berghei; test: Screen against P. berghei liver stage (PbLuc), transformed with Luciferase, at 10uM; type: functional, HepG2; conditions: tested at 10 uM
Out of some 69,000 compounds screened, about 8,600 (12%) showed an effect of 50% or more. The full list was thinned out, with strong results kept by preference.
Please provide measured INHIBITION for the entries that follow.
Answers are plain numbers, in %.

// worked examples, INHIBITION included
>  <COMPOUND>
CCc1nnc2n1CCN(C(=O)CN(C)Cc1ccccc1)C2

>  <TARGET_OR_TEST_SYSTEM>
Plasmodium berghei

>  <REPORTED_RESULT>
20.1

$$$$
>  <COMPOUND>
O=C(c1ccncc1)N1CCN2C[C@H](Oc3cccc(F)c3)C[C@H]2C1

>  <TARGET_OR_TEST_SYSTEM>
Plasmodium berghei

>  <REPORTED_RESULT>
15.3

$$$$
>  <COMPOUND>
Cc1nc(N2CCOCC2)nc2c1CCN(Cc1ccsc1)CC2

>  <TARGET_OR_TEST_SYSTEM>
Plasmodium berghei

>  <REPORTED_RESULT>
60.5

$$$$

// batch mode: one INHIBITION value per listed entry
1. Cc1nc(C)c2c(n1)CCN(Cc1ccsc1)CC2
2. Cc1nnc2n1CCN(C(=O)c1ccnc(N(C)C)c1)C2
3. O=C(CCc1cccnc1)N1CCC2(CCN(CC3CCCC3)C2)C1 (stereo not drawn)
4. Cc1nn(C)c(C)c1C1CCCN1CC(=O)Nc1ccc(Cl)cn1 (stereo not drawn)
5. CN(CCOc1cccc(CN)c1)C1CCOCC1

Result:
1: -5.08; 2: 21.6; 3: -7.2; 4: -48.4; 5: 0

// batch mode: one INHIBITION value per listed entry
1. Cc1nc(-c2ccco2)ccc1C(=O)N1CCn2c(C)nnc2C1
2. CCc1nnc2n1CCN(C(=O)c1cnn(C)c1C1CC1)C2
3. CN(Cc1ccsc1)C(=O)c1nc(N2CCCCC2)ncc1Cl
4. CC(C)c1nnc2n1CCN(C(=O)c1cnc(C3CC3)s1)C2

Result:
1: -17.6; 2: 53.9; 3: 26.7; 4: 43.1

Problem: Name the reported INHIBITION value associated with the compound O=C1COC2(CCN(c3cccc(F)c3)CC2)CN1Cc1ccccn1
Result: 42.3

Origin of the recorded values: ChEMBL document CHEMBL4513216
